- test: Solubility determination
- Assay type: physicochemical
- conditionSummary: 22 °C, aqueous buffer, kinetic from dmso stock
Numbered stars: 1 amine (or outer) side, 2 acyl side, 3 side chain; on linkers, the order of the positions; unused ones are H or OH. Bridge positions count the residues as written; N and C are the ends. Square brackets hold non-standard residues; d marks the D form. Peptide text beside a SMILES is read from it. * marks the point of attachment. Piperazine(2S-CO,4-Me) = CN1CCN[C@H](C(=O)O)C1; NH(1,3-benzodioxol-5-yl) = c1cc2c(cc1N*)OCO2; X6 = O=C([C@@H]1CS(=O)(=O)CCN1[*:1])[*:2]; Phe(3-OMe) = COc1cccc(C[C@H](N)C(=O)O)c1; Phe(3-Me) = Cc1cccc(C[C@H](N)C(=O)O)c1; NH(4-Cl-2-F-phenyl) = Fc1cc(Cl)ccc1N*; Pro(4R-Me) = C[C@H]1CN[C@H](C(=O)O)C1; Propanoyl(3-NMe2) = CN(C)CCC(=O)*; X1 = O=C([C@@H]1CSCCN1[*:1])[*:2]; Hyp = O=C(O)[C@@H]1C[C@@H](O)CN1; NH(4-Et-phenyl) = CCc1ccc(N*)cc1; aThr = C[C@H](O)[C@H](N)C(=O)O; Pip = O=C(O)[C@@H]1CCCCN1; X3 = c1cc2c(cc1N*)OCCO2; CO = O=C([*:1])[*:2]

compound | solubility kinetic at 10 min
Cc1cccc(C[C@H](NC(=O)Nc2ccc(Cl)cc2F)C(=O)N[C@@H]2C(=O)N3CCC[C@H]3C(=O)N3CCS(=O)(=O)C[C@H]3C(=O)N[C@@H](C)C(=O)N3C[C@H](C)C[C@H]3C(=O)O[C@H]2C)c1 [Compound 40] ({NH(4-Cl-2-F-phenyl)-CO}-[Phe(3-Me)][aThr]P[X6]A[Pro(4R-Me)]; ester 2-C) | 2.21 µM
Cc1cccc(C[C@H](NC(=O)Nc2ccc(Cl)cc2F)C(=O)N[C@H]2COC(=O)[C@@H]3C[C@@H](C)CN3C(=O)[C@H](C)NC(=O)[C@@H]3CCCCN3C(=O)[C@@H]3C[C@@H](O)CN3C2=O)c1 | 27 µM
Cc1cccc(C[C@H](NC(=O)Nc2ccc(Cl)cc2F)C(=O)N[C@@H]2C(=O)N3C[C@H](O)C[C@H]3C(=O)N3CCN(C)C[C@H]3C(=O)N[C@@H](C)C(=O)N3C[C@H](C)C[C@H]3C(=O)O[C@H]2C)c1 [Compound 31] ({NH(4-Cl-2-F-phenyl)-CO}-[Phe(3-Me)][aThr][Hyp][Piperazine(2S-CO,4-Me)]A[Pro(4R-Me)]; ester 2-C) | 68.9 µM
CCc1ccc(NC(=O)N[C@@H](Cc2cccc(C)c2)C(=O)N[C@@H]2C(=O)N3C[C@H](O)C[C@H]3C(=O)N3CCCC[C@H]3C(=O)N[C@@H](C)C(=O)N3C[C@H](C)C[C@H]3C(=O)O[C@H]2C)cc1 [Compound 25] ({NH(4-Et-phenyl)-CO}-[Phe(3-Me)][aThr][Hyp][Pip]A[Pro(4R-Me)]; ester 2-C) | 18.6 µM
Cc1cccc(C[C@H](NC(=O)Nc2ccc3c(c2)OCO3)C(=O)N[C@H]2COC(=O)[C@@H]3C[C@@H](C)CN3C(=O)[C@H](C)NC(=O)[C@@H]3CN(C)CCN3C(=O)[C@@H]3CCCN3C2=O)c1 [Compound 17] ({NH(1,3-benzodioxol-5-yl)-CO}-[Phe(3-Me)]SP[Piperazine(2S-CO,4-Me)]A[Pro(4R-Me)]; ester 2-C) | 64.6 µM
Cc1cccc(C[C@H](NC(=O)Nc2ccc(Cl)cc2F)C(=O)N[C@H]2COC(=O)[C@@H]3C[C@@H](C)CN3C(=O)[C@H](C)NC(=O)[C@@H]3CN(C)CCN3C(=O)[C@@H]3CCCN3C2=O)c1 [Compound 13] ({NH(4-Cl-2-F-phenyl)-CO}-[Phe(3-Me)]SP[Piperazine(2S-CO,4-Me)]A[Pro(4R-Me)]; ester 2-C) | 40.1 µM
COc1cccc(C[C@H](NC(=O)Nc2ccc(Cl)cc2F)C(=O)N[C@H]2COC(=O)[C@@H]3C[C@@H](C)CN3C(=O)[C@H](C)NC(=O)[C@@H]3CN(C)CCN3C(=O)[C@@H]3CCCN3C2=O)c1 [Compound 19] ({NH(4-Cl-2-F-phenyl)-CO}-[Phe(3-OMe)]SP[Piperazine(2S-CO,4-Me)]A[Pro(4R-Me)]; ester 2-C) | 55.9 µM
Cc1cccc(C[C@H](NC(=O)Nc2ccc(Cl)cc2F)C(=O)N[C@@H]2C(=O)N3C[C@H](O)C[C@H]3C(=O)N3CCSC[C@H]3C(=O)N[C@@H](C)C(=O)N3C[C@H](C)C[C@H]3C(=O)O[C@H]2C)c1 [Compound 41] ({NH(4-Cl-2-F-phenyl)-CO}-[Phe(3-Me)][aThr][Hyp][X1]A[Pro(4R-Me)]; ester 2-C) | 1.4 µM
Cc1cccc(C[C@H](NC(=O)Nc2ccc3c(c2)OCO3)C(=O)N[C@H]2COC(=O)[C@@H]3C[C@@H](C)CN3C(=O)[C@H](C)NC(=O)[C@@H]3CCCCN3C(=O)[C@@H]3CCCN3C2=O)c1 | 1.7 µM
Cc1cccc(C[C@H](NC(=O)Nc2ccc3c(c2)OCCO3)C(=O)N[C@@H]2C(=O)N3C[C@H](O)C[C@H]3C(=O)N3CCCC[C@H]3C(=O)N[C@@H](C)C(=O)N3C[C@H](C)C[C@H]3C(=O)O[C@H]2C)c1 [Compound 28] ({X3-CO}-[Phe(3-Me)][aThr][Hyp][Pip]A[Pro(4R-Me)]; ester 2-C) | 34.7 µM
Cc1cccc(C[C@H](NC(=O)Nc2ccc(Cl)cc2F)C(=O)N[C@@H]2C(=O)N3C[C@H](OC(=O)CCN(C)C)C[C@H]3C(=O)N3CCCC[C@H]3C(=O)N[C@@H](C)C(=O)N3C[C@H](C)C[C@H]3C(=O)O[C@H]2C)c1 [Compound 46] ({NH(4-Cl-2-F-phenyl)-CO}-[Phe(3-Me)][aThr][Hyp](Propanoyl(3-NMe2))[Pip]A[Pro(4R-Me)]; ester 2-C) | 195 µM
Cc1cccc(C[C@H](NC(=O)Nc2ccc(Cl)cc2F)C(=O)N[C@@H]2C(=O)N3CCC[C@H]3C(=O)N3CCN(C)C[C@H]3C(=O)N[C@@H](C)C(=O)N3C[C@H](C)C[C@H]3C(=O)O[C@H]2C)c1 [Compound 11] ({NH(4-Cl-2-F-phenyl)-CO}-[Phe(3-Me)][aThr]P[Piperazine(2S-CO,4-Me)]A[Pro(4R-Me)]; ester 2-C) | 43.2 µM

---

# AUC(0-inf) per record follows
- test: Plasma pharmacokinetics
- Type: in vivo, male BALB/c mice
- conditionSummary: male, BALB/c, mouse, in vivo, iv, 10 mg/kg; Route i.v.; read-out: AUCinf
Numbered stars: 1 amine (or outer) side, 2 acyl side, 3 side chain; on linkers, the order of the positions; unused ones are H or OH. Bridge positions count the residues as written; N and C are the ends. Square brackets hold non-standard residues; d marks the D form. Peptide text beside a SMILES is read from it. * marks the point of attachment. Piperazine(2S-CO,4-Me) = CN1CCN[C@H](C(=O)O)C1; Phe(3-Me) = Cc1cccc(C[C@H](N)C(=O)O)c1; Pro(4R-Me) = C[C@H]1CN[C@H](C(=O)O)C1; Hyp = O=C(O)[C@@H]1C[C@@H](O)CN1; NH(4-Me-phenyl) = Cc1ccc(N*)cc1; aThr = C[C@H](O)[C@H](N)C(=O)O; Pip = O=C(O)[C@@H]1CCCCN1; CO = O=C([*:1])[*:2]
propertyLabel: AUC(0-inf)

molecule | measurement
Cc1ccc(NC(=O)N[C@@H](Cc2cccc(C)c2)C(=O)N[C@@H]2C(=O)N3CCC[C@H]3C(=O)N3CCCC[C@H]3C(=O)N[C@@H](C)C(=O)N3C[C@H](C)C[C@H]3C(=O)O[C@H]2C)cc1 [Compound 1] ({NH(4-Me-phenyl)-CO}-[Phe(3-Me)][aThr]P[Pip]A[Pro(4R-Me)]; ester 2-C) | 7620 ng·h/mL
Cc1ccc(NC(=O)N[C@@H](Cc2cccc(C)c2)C(=O)N[C@@H]2C(=O)N3C[C@H](O)C[C@H]3C(=O)N3CCN(C)C[C@H]3C(=O)N[C@@H](C)C(=O)N3C[C@H](C)C[C@H]3C(=O)O[C@H]2C)cc1 [Compound 30] ({NH(4-Me-phenyl)-CO}-[Phe(3-Me)][aThr][Hyp][Piperazine(2S-CO,4-Me)]A[Pro(4R-Me)]; ester 2-C) | 2650 ng·h/mL

---

- test: Plasma pharmacokinetics
- Type: in vivo, male BALB/c mice
- conditionSummary: male, BALB/c, mouse, in vivo, iv
Numbered stars: 1 amine (or outer) side, 2 acyl side, 3 side chain; on linkers, the order of the positions; unused ones are H or OH. Bridge positions count the residues as written; N and C are the ends. Square brackets hold non-standard residues; d marks the D form. Peptide text beside a SMILES is read from it. * marks the point of attachment. Piperazine(2S-CO,4-Me) = CN1CCN[C@H](C(=O)O)C1; Morpholine(3S-CO) = O=C(O)[C@@H]1COCCN1; Phe(3-Me) = Cc1cccc(C[C@H](N)C(=O)O)c1; NH(4-Cl-2-F-phenyl) = Fc1cc(Cl)ccc1N*; Pro(4R-Me) = C[C@H]1CN[C@H](C(=O)O)C1; X1 = O=C([C@@H]1CSCCN1[*:1])[*:2]; Hyp = O=C(O)[C@@H]1C[C@@H](O)CN1; NH(4-Et-phenyl) = CCc1ccc(N*)cc1; aThr = C[C@H](O)[C@H](N)C(=O)O; Pip = O=C(O)[C@@H]1CCCCN1; CO = O=C([*:1])[*:2]

compound | C^0 / ng/mL
Cc1cccc(C[C@H](NC(=O)Nc2ccc3c(c2)OCO3)C(=O)N[C@H]2COC(=O)[C@@H]3C[C@@H](C)CN3C(=O)[C@H](C)NC(=O)[C@@H]3CCCCN3C(=O)[C@@H]3CCCN3C2=O)c1 | 25009.24
CCc1ccc(NC(=O)N[C@@H](Cc2cccc(C)c2)C(=O)N[C@@H]2C(=O)N3C[C@H](O)C[C@H]3C(=O)N3CCOC[C@H]3C(=O)N[C@@H](C)C(=O)N3C[C@H](C)C[C@H]3C(=O)O[C@H]2C)cc1 [Compound 24] ({NH(4-Et-phenyl)-CO}-[Phe(3-Me)][aThr][Hyp][Morpholine(3S-CO)]A[Pro(4R-Me)]; ester 2-C) | 27083.47
Cc1cccc(C[C@H](NC(=O)Nc2ccc(Cl)cc2F)C(=O)N[C@@H]2C(=O)N3C[C@H](O)C[C@H]3C(=O)N3CCN(C)C[C@H]3C(=O)N[C@@H](C)C(=O)N3C[C@H](C)C[C@H]3C(=O)O[C@H]2C)c1 [Compound 31] ({NH(4-Cl-2-F-phenyl)-CO}-[Phe(3-Me)][aThr][Hyp][Piperazine(2S-CO,4-Me)]A[Pro(4R-Me)]; ester 2-C) | 30582.19
Cc1cccc(C[C@H](NC(=O)Nc2ccc(Cl)cc2F)C(=O)N[C@@H]2C(=O)N3CCC[C@H]3C(=O)N3CCN(C)C[C@H]3C(=O)N[C@@H](C)C(=O)N3C[C@H](C)C[C@H]3C(=O)O[C@H]2C)c1 [Compound 11] ({NH(4-Cl-2-F-phenyl)-CO}-[Phe(3-Me)][aThr]P[Piperazine(2S-CO,4-Me)]A[Pro(4R-Me)]; ester 2-C) | 9127.72
Cc1cccc(C[C@H](NC(=O)Nc2ccc(Cl)cc2F)C(=O)N[C@@H]2C(=O)N3CCC[C@H]3C(=O)N3CCSC[C@H]3C(=O)N[C@@H](C)C(=O)N3C[C@H](C)C[C@H]3C(=O)O[C@H]2C)c1 [Compound 38] ({NH(4-Cl-2-F-phenyl)-CO}-[Phe(3-Me)][aThr]P[X1]A[Pro(4R-Me)]; ester 2-C) | 16999.46
Cc1cccc(C[C@H](NC(=O)Nc2ccc(Cl)cc2F)C(=O)N[C@@H]2C(=O)N3CCC[C@H]3C(=O)N3CCCC[C@H]3C(=O)N[C@@H](C)C(=O)N3C[C@H](C)C[C@H]3C(=O)O[C@H]2C)c1 [Compound 3] ({NH(4-Cl-2-F-phenyl)-CO}-[Phe(3-Me)][aThr]P[Pip]A[Pro(4R-Me)]; ester 2-C) | 13482.56
CCc1ccc(NC(=O)N[C@@H](Cc2cccc(C)c2)C(=O)N[C@H]2COC(=O)[C@@H]3C[C@@H](C)CN3C(=O)[C@H](C)NC(=O)[C@@H]3CN(C)CCN3C(=O)[C@@H]3CCCN3C2=O)cc1 [Compound 16] ({NH(4-Et-phenyl)-CO}-[Phe(3-Me)]SP[Piperazine(2S-CO,4-Me)]A[Pro(4R-Me)]; ester 2-C) | 18634.35
Cc1cccc(C[C@H](NC(=O)Nc2ccc(Cl)cc2F)C(=O)N[C@@H]2C(=O)N3C[C@H](O)C[C@H]3C(=O)N3CCCC[C@H]3C(=O)N[C@@H](C)C(=O)N3C[C@H](C)C[C@H]3C(=O)O[C@H]2C)c1 [Compound 6] ({NH(4-Cl-2-F-phenyl)-CO}-[Phe(3-Me)][aThr][Hyp][Pip]A[Pro(4R-Me)]; ester 2-C) | 34296.43

Values from patent US10570179B2
